# protocolDescription: In vivo zebrafish kinetics of BPZ (water exposure, organ concentrations by LC-MS/MS)
# Design: species or system zebrafish (Danio rerio)
# conditionSummary: female, zebrafish, ovary, other: water exposure, 10 µg/L, female zebrafish, 24 h; read-out: Mean concentration, ovary
outcomeMeasure: concentration at 24 h

input: Give the reported concentration at 24 h for this compound. Oc1ccc(C2(c3ccc(O)cc3)CCCCC2)cc1 [BPZ, bisphenol Z]
output: 146 ng/g

* * *

# protocolDescription: In vivo zebrafish kinetics of BPZ (water exposure, organ concentrations by LC-MS/MS)
# Design: species or system zebrafish (Danio rerio)
# conditionSummary: female, zebrafish, liver, other: water exposure, 10 µg/L, female zebrafish, 480 h (one outlier fish removed); read-out: Mean concentration, liver
outcomeMeasure: concentration at 480 h
Please append the unit to your numeric answer.

input: For the molecule "Oc1ccc(C2(c3ccc(O)cc3)CCCCC2)cc1" , report concentration at 480 h.
output: 1010 ng/g

* * *

# protocolDescription: In vivo zebrafish kinetics of BPZ (water exposure, organ concentrations by LC-MS/MS)
# Design: species or system zebrafish (Danio rerio)
# conditionSummary: female, zebrafish, whole body (calculated), other: water exposure, 10 µg/L, female zebrafish, 72 h; read-out: Mean concentration, whole body (calculated)
outcomeMeasure: concentration at 72 h (ng/g)
Response body: numeric value in ng/g, unit text excluded.

input: Dear colleague, please send me the reported concentration at 72 h for Oc1ccc(C2(c3ccc(O)cc3)CCCCC2)cc1 [BPZ, bisphenol Z] when you can.
output: 900

* * *

# protocolDescription: In vitro biotransformation rate, rainbow trout liver S9 (OECD TG 319)
# Assay type: in vitro ADME
# conditionSummary: series 2 (s2)
Recorded k (first-order disappearance rate constant) for the following compounds

Below, each entry is followed by its recorded k (first-order disappearance rate constant) result.
CC(C)(c1cc(Br)c(O)c(Br)c1)c1cc(Br)c(O)c(Br)c1 [TBBPA, tetrabromobisphenol A]	4.38 h⁻¹
CCC(C)(c1ccc(O)cc1)c1ccc(O)cc1 [BPB, bisphenol B]	0.99 h⁻¹

// next item, k (first-order disappearance rate constant) requested
input: Give the value of k (first-order disappearance rate constant) reported for the following: Oc1ccc(C2(c3ccc(O)cc3)CCCCC2)cc1 [BPZ, bisphenol Z]
output: 0.26 h⁻¹

* * *

# protocolDescription: In vivo zebrafish kinetics of BPZ (water exposure, organ concentrations by LC-MS/MS)
# Set-up: species or system zebrafish (Danio rerio)
# conditionSummary: female, zebrafish, whole body, other: exposure via tank water, 10 μg/L (nominal water concentration), female zebrafish, 6 h; read-out: Mean concentration, whole body (measured)
# Method: At sampling, adult fish were euthanized by immersion in a sodium bicarbonate-buffered tricaine methanesulfonate solution (MS222: 500 mg/L) and decapitated thereafter. […] 176The extracts were measured on a LC (ExionLC, Sciex) coupled with a Turbo V Ion source (ESI) […] 195plus the average blank value. The limit of quantification (LOQ) is defined as 3.3 * LOD value […] Detection and report limits (calculated on based of average sample intake)
outcomeMeasure: concentration at 6 h (ng/g)
Note: unit ng/g is implicit; provide only the numeric part.

input: Let me know recorded concentration at 6 h for Oc1ccc(C2(c3ccc(O)cc3)CCCCC2)cc1 [BPZ, bisphenol Z] , thanks.
output: 215

Hey, just so you know, these numbers are from paper PMC9301920.
